// values below are reported protein stability index
B1: ZNF263 (parent)
chain: VPGTQVGQGGKLWDPSVQSCKEGL

# Variants of: B1
# ASSAY PROTOCOL: protein stability index of a GFP-peptide fusion (GPS, HEK-293T) (PSI 1-6); higher = more stable;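 also: lentivirally expressed fusions sorted by FACS into six bins by GFP to DsRed ratio, PSI derived from sequencing read proportions per bin multiplied by bin number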
# COND: c terminus: a fixed tail appended
Format: numeric value only, no unit, no commentary.

INSERT INTO assay_data (mutant_id, value_reported) VALUES
  ('V6R', 4.55);

Supply measured protein stability index of Q18F in your reply.
3.2

Supply measured protein stability index of E22T in your reply.
4.42

Supply measured protein stability index of P15Q in your reply.
4.25

Supply measured protein stability index of G9W in your reply.
3.33

Supply measured protein stability index of P2L in your reply.
3.89
